Assay: Inhibition of LPS-induced NF-kappaB activation in mouse RAW264.7 cells transfected with IKKbeta-pSV-b-galactosidase control vector after 20 hrs by secretory alkaline phosphatase assay
Type: cell-based
test readout: IC50 (µM)

{"test smiles": "CCCCCCCCCCCCOc1cccc(O)c1C(=O)/C=C/c1ccc(O)cc1", "scale unit": "µM", "quantitative result": 9.4}
{"test smiles": "CCCCCCCCCCOc1cccc(O)c1C(=O)/C=C/c1ccc(O)c(Cl)c1", "scale unit": "µM", "quantitative result": 9.6}

* * *

Experiment: Inhibition of LPS-induced NF-kappaB activation in mouse RAW264.7 cells transfected with IKKbeta-pSV-b-galactosidase control vector after 20 hrs by secretory alkaline phosphatase assay
Format: cell-based
Known IC50 of a selection of compounds

Read off the recorded IC50 for CCCCCCCCCCCCCCOc1cccc(O)c1C(=O)/C=C/c1ccc(OCCCCCCCCCCCCC)cc1
> 30 µM

Read off the recorded IC50 for CCCCCCCCCCCCOc1cccc(O)c1C(O)CCc1ccc(O)cc1 (stereo unspecified)
> 30 µM

Read off the recorded IC50 for CCCCCCCCCCOc1cccc(O)c1C(=O)/C=C/c1ccc(C)cc1
> 30 µM

Read off the recorded IC50 for CCCCCCCCOc1cccc(O)c1C(=O)/C=C/c1ccc(O)cc1
5 µM

Read off the recorded IC50 for CC(C)CCOc1cccc(O)c1C(=O)/C=C/c1ccc(O)cc1
10 µM

* * *

Experiment: Inhibition of LPS-induced NF-kappaB activation in mouse RAW264.7 cells transfected with IKKbeta-pSV-b-galactosidase control vector after 20 hrs by secretory alkaline phosphatase assay
Assay type: cell-based
pIC50: −log10 of the molar value.
test readout: pIC50

Example results:
{"compound": "CCCCCCCCCCOc1cccc(O)c1C(=O)/C=C/c1ccc(O)cc1", "quantitative result": 5.57}
{"compound": "CCCCCCCCCCCCCCOc1ccc(C(=O)/C=C/c2ccc(O)cc2)c(O)c1", "quantitative result": 4.54}

A: CCCCCCCCCCCCCCOc1cccc(O)c1C(=O)/C=C/c1ccc(O)cc1
B: CCCCCCCCC(CCCCCC)CCOc1cccc(O)c1C(=O)/C=C/c1ccc(O)cc1 (stereo not drawn)
Looking at A and B , which one comes out lower in pIC50 terms? Answer = label.
B
(B: 5.02, A: 5.38)

* * *

Known IC50 of a selection of compounds
Test: Inhibition of LPS-induced NF-kappaB activation in mouse RAW264.7 cells transfected with IKKbeta-pSV-b-galactosidase control vector after 20 hrs by secretory alkaline phosphatase assay
Type: cell-based

{"test smiles": "CCCCCCCCCCOc1cccc(O)c1C(=O)/C=C/c1cc(OC)c(O)c(OC)c1", "IC50": "> 30 µM"}

Read off the recorded IC50 for O=C(/C=C/c1ccc(O)cc1)c1c(O)cccc1OCC1CCCCC1
> 30 µM

Read off the recorded IC50 for CCCCCCCCCCOc1cccc(O)c1C(=O)/C=C/c1cccc(O)c1
> 30 µM

* * *

Experiment: Inhibition of LPS-induced NF-kappaB activation in mouse RAW264.7 cells transfected with IKKbeta-pSV-b-galactosidase control vector after 20 hrs by secretory alkaline phosphatase assay
Type: cell-based
pIC50: −log10 of the molar value.
test readout: pIC50

Example results:
{"test smiles": "O=C(/C=C/c1ccc(O)cc1)c1c(O)cccc1OCc1ccccc1", "pIC50": "< 4.52"}
{"test smiles": "CCCCC/C=C\\CCCCOc1cccc(O)c1C(=O)/C=C/c1ccc(O)cc1", "pIC50": "< 4.52"}
{"test smiles": "CCCCCCCCCCOc1cccc(O)c1C(=O)/C=C/c1ccc(OC)cc1", "pIC50": "< 4.52"}

Read off the recorded pIC50 for CCCCCCCCCCCCCCCCOc1cccc(O)c1C(=O)/C=C/c1ccc(O)cc1
< 4.52
